Source of measurements: PubChem BioAssay (NCI)

- System: MDA-MB-468 breast
- Experimental Details: NCI-60 one-dose screen, 48 h
- Applied Conditions: 10 µM unless noted
- Protocol: Growth inhibition of the MDA-MB-468 human Breast tumor cell line is measured as a screen for anti-cancer activity. Cells are grown in 96 well plates and exposed to the test compound for 48 hours. Compounds are tested at a single concentration, which is 10^-5 M for most compounds. The reported endpoint is percent growth (GI% or GIPRCNT), where numbers from 0 - 100% represent growth inhibition, and numbers from -100% - 0 represent cell death. […]
This is part of a sample that, as a whole, favours compounds with a hit. Of some 83,000 tested, about 20% had one in any assay. The source made the active and inactive calls. How the source made its calls: active means growth percent below 10; inactive means the rest.
Form entry, call: pick from active, inactive

Sample answers from the record:
> print(dat)
                                   compound  assigned.category
1  CN(C)CC(=O)Nc1ccc2ncnc(Nc3ccc(Oc4cccc(C(F)(F)F)c4)c(Cl)c3)c2c1             active
2  Cc1ccc(-c2nc(C#N)c(S(=O)(=O)N(C)CCO)o2)cc1           inactive
3  CCOC(=O)c1ccccc1-c1c2ccc(=[N+](C)C)cc-2oc2cc(N(C)C)ccc12             active
4  O=C(CC(O)c1ccncc1)c1ccccc1 (stereo not given)             active

Next compound, please.
Assay outcome for CC1(C)C2CC=C(/C=N/NC(=O)C3CCC(=O)N3)C1C2 (stereo not given) : what was it?
inactive

* * *

- System: MDA-MB-468 breast
- Experimental Details: NCI-60 one-dose screen, 48 h (100 = growth as untreated, 0 = no growth, -100 = all killed)
- Applied Conditions: 10 µM unless noted
The panel holds about 83,000 compounds, 20% with a hit somewhere; the sample as a whole holds those more often.
Value Kind: growth (%)
Give just the numeric value; % need not be written.

# annotated cases, reported growth shown
> print(dat)
                                   molecule  value.kind  output.unit  recorded.result
1  O=C1CC(=O)N(C(=O)c2nn(-c3ccc(Cl)cc3)cc2O)N1      growth            %             62.4
2  Cc1cc2c(C(C)C)c(O)c(O)c(C=NCc3ccoc3)c2c(O)c1-c1c(C)cc2c(C(C)C)c(O)c(O)c(C=NCc3ccco3)c2c1O      growth            %               61
3  CCOC(=O)C1C(=O)C=C(c2ccccc2)CC1c1sc(N(C)Cc2ccccc2)nc1Cl (stereo not given)      growth            %             80.9
4  COc1ccccc1C(=O)Nc1cccc(-c2cc(=O)c3c(OC)c(OC)c(OC)cc3o2)c1      growth            %             39.2

Okay, next one:
Can you share its growth? I mean this molecule: O=C1C=CC(=Nc2cc(Br)c(O)c(Br)c2)C=C1
51.4

* * *

- System: MDA-MB-468 breast
- Experimental Details: NCI-60 one-dose screen, 48 h (100 = growth as untreated, 0 = no growth, -100 = all killed)
- Applied Conditions: 10 µM unless noted
Compounds without any hit were thinned out: in the full panel of roughly 83,000, 20% have a hit. Activity calls are given as the source filed them. The calls were made as follows: active = growth percent below 10; inactive = the rest.
The reader will find reported growth values listed item by item below.

> print(dat)
                                   compound   recorded.result
1          Cc1c(C(=O)O)c(=O)n(-c2ccccc2)n1C   127% (inactive)
2  COc1ccc(/C=C(/C(=O)c2ccc(Cl)cc2)C(=O)C(F)(F)F)cc1  99.7% (inactive)
3  C=CCn1c(SCC(=O)Nc2ccc(C(=O)/C=C/c3cc(OC)c(OC)c(OC)c3)cc2)nnc1-c1ccccc1    82% (inactive)
4  Cc1csc(NC(c2ccc(Br)cc2)c2c(C)nc3ccccn23)n1 (stereo not drawn)  93.5% (inactive)
5               Cn1c2nc3ccccc3c-2cc2ccccc21  41.3% (inactive)
6    COc1ccc(-c2nc(N)ncc2Oc2ccccc2OC)c(O)c1   -2.89% (active)

Request body: readout growth, system MDA-MB-468 breast, query CN(C)c1ccc(-c2ccc3c(c2)c(-c2ccccc2)nc(=O)n3C)cn1 . Return the value.
5.69% (active)

Request body: readout growth, system MDA-MB-468 breast, query COc1cccc(-c2nc3sccn3c2-c2ccnc(NCCNS(=O)(=O)c3ccc(C(F)(F)F)cc3)c2)c1 . Return the value.
41.7% (inactive)

Request body: readout growth, system MDA-MB-468 breast, query O=C1N[C@@H]2NC(=[N+]3CCOCC3)N[C@@H]2N1 . Return the value.
99.6% (inactive)

Request body: readout growth, system MDA-MB-468 breast, query C=C(C)CCC(C)N1CCC(N2CCC(C(=O)NCCc3ccccc3)CC2)CC1 (stereo not drawn) . Return the value.
48.4% (inactive)

Request body: readout growth, system MDA-MB-468 breast, query Nc1ccc(C2=NN(c3ccccc3)C(c3ccc(Cl)cc3)C2)cc1 (stereo not drawn) . Return the value.
62.6% (inactive)

Request body: readout growth, system MDA-MB-468 breast, query COC(=O)c1ccc(NC(=S)N2CCc3ccc([N+](=O)[O-])cc3C2)cc1O . Return the value.
94.2% (inactive)

Request body: readout growth, system MDA-MB-468 breast, query CCCOc1ccc2c(c1)CC[C@@H]1[C@@H]2CC[C@@]2(C)[C@H]1CC[C@]2(C)O . Return the value.
59.8% (inactive)

Request body: readout growth, system MDA-MB-468 breast, query O=C(/C=C/C12c3ccccc3C(c3ccccc31)C1C(=O)NC(=O)C12)c1ccncc1 (stereo not drawn) . Return the value.
6.35% (active)

Request body: readout growth, system MDA-MB-468 breast, query CCN(CC)CCNC(=O)n1cc(-c2ccncc2)c(-c2ccc(Cl)c(OC)c2)n1 . Return the value.
88.3% (inactive)

Request body: readout growth, system MDA-MB-468 breast, query Oc1[nH]c2cc(Cl)ccc2c1/C=c1/ccc2c(c1)N=C(c1cc(F)cc(F)c1)N=2 . Return the value.
-19.6% (active)

Request body: readout growth, system MDA-MB-468 breast, query Cc1cc(Nc2cc(N3CCN(C)CC3)nc(/C=C/c3ccccc3)n2)n[nH]1 . Return the value.
-17.8% (active)

Request body: readout growth, system MDA-MB-468 breast, query O=C(O)Cc1ccc(Cl)cc1 . Return the value.
106% (inactive)

Request body: readout growth, system MDA-MB-468 breast, query COc1ccc(OC)c(C2OC(c3ccc4ccccc4c3O)=NN2C(C)=O)c1 (stereo not drawn) . Return the value.
53.9% (inactive)

Request body: readout growth, system MDA-MB-468 breast, query Cc1cc(Cl)ccc1Nc1nc(C(F)(F)F)ccc1C(=O)NCC(=O)N/N=C/c1c(Cl)cccc1Cl . Return the value.
105% (inactive)

Request body: readout growth, system MDA-MB-468 breast, query COc1cc(-c2nc(C(=O)NCC(=O)O)nn2-c2ccc(Cl)cc2)cc(OC)c1OC . Return the value.
113% (inactive)

Request body: readout growth, system MDA-MB-468 breast, query COc1ccccc1C(OC(C)=O)OC(C)=O . Return the value.
98% (inactive)

Request body: readout growth, system MDA-MB-468 breast, query COc1ccc2nc(-c3ccc(-c4noc(-c5ccc(Cl)cc5)n4)cc3)[nH]c2c1 . Return the value.
37.5% (inactive)

Request body: readout growth, system MDA-MB-468 breast, query COc1cc2c(c(OC)c1OC)C(=O)CC(c1cccc(C(=O)Nc3ccc(Br)cc3)c1)O2 (stereo not drawn) . Return the value.
30.5% (inactive)

Request body: readout growth, system MDA-MB-468 breast, query CC(C)NC1CCC(Nc2ccnc3cc(Cl)ccc23)CC1 (stereo not drawn) . Return the value.
62.3% (inactive)

Request body: readout growth, system MDA-MB-468 breast, query CCCCSCC(=O)c1ccccc1 . Return the value.
113% (inactive)

* * *

The reader will find reported growth values listed item by item below.
- System: MDA-MB-468 breast
- Experimental Details: NCI-60 one-dose screen, 48 h (100 = growth as untreated, 0 = no growth, -100 = all killed)
- Applied Conditions: 10 µM unless noted
About 83,000 compounds went through this panel and 20% of them were active in at least one assay; those are over-represented in the sample as a whole.
Give just the numeric value; % need not be written.

Can you share its growth? I mean this compound: COc1ccc2nc3cc(Cl)ccc3c(N3CCN(c4nccc(Nc5ccc(Cl)cc5)n4)CC3)c2c1
82.8

Can you share its growth? I mean this compound: O=C1/C(=C/c2ccc(-c3ccc(Cl)cc3)o2)SC(=S)N1CCc1ccc(O)cc1
87

Can you share its growth? I mean this compound: COc1c(F)cc(-n2c(C(=O)N3CC(F)C3)cc3cccnc32)cc1F
98.4

Can you share its growth? I mean this compound: COc1ccc(C2C=C(c3ccc(Cl)cc3)N=C3SC=CN32)cc1 (stereo not given)
120

Can you share its growth? I mean this compound: COc1ccc(C(=O)/C(=N/Nc2ccccc2)c2ccc(OC)cc2)cc1
106
